Biological target: Receptor tyrosine-protein kinase erbB-2 (Homo sapiens)
Sequence (P04626 whole entry): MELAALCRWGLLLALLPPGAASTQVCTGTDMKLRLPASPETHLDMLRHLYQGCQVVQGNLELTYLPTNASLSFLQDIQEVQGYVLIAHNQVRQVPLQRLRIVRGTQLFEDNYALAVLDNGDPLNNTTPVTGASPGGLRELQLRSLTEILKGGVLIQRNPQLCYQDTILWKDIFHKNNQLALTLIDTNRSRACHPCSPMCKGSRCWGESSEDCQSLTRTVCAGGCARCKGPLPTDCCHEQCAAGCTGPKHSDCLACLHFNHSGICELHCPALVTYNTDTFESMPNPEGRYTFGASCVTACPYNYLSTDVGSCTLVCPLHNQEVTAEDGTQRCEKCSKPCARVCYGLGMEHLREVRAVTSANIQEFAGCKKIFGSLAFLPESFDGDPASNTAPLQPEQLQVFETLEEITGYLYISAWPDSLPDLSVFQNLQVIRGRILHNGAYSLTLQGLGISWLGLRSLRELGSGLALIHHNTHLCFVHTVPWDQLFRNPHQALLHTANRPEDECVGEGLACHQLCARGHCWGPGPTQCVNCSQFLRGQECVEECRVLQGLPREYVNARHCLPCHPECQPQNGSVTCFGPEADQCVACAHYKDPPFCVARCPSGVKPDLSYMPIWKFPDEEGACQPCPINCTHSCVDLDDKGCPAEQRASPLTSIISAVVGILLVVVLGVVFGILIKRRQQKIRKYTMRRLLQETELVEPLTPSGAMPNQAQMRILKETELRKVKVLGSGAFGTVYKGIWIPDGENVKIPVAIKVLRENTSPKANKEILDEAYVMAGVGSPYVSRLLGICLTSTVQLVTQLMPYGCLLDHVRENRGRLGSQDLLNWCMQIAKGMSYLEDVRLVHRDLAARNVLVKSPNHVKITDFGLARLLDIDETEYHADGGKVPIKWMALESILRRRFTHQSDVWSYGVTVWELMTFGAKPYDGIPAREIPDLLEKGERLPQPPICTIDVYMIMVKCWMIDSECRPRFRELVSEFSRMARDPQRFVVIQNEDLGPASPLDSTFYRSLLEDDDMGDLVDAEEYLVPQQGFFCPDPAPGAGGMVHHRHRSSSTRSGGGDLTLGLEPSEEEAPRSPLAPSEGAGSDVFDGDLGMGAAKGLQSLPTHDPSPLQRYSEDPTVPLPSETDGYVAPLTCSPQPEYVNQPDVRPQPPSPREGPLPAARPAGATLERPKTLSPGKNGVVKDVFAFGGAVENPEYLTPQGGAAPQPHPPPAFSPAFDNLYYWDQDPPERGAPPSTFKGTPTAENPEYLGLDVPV
Assay: Inhibition of HER2 (unknown origin)
pIC50: −log10 of the molar value.
observed property: pIC50

A selection of reference data follows.
[
  {
    "molecule": "CCOc1cc2ncnc(Nc3ccc(Oc4ccn5ncnc5c4)c(C)c3)c2cc1NC(=O)/C(F)=C/[C@H]1CCCN1C",
    "target entity": "Receptor tyrosine-protein kinase erbB-2 (Homo sapiens)",
    "pIC50": 8.45
  },
  {
    "molecule": "Cc1cc(Nc2ncnc3ccc(NC4=NC(C)(C)CO4)cc23)ccc1Oc1ccn2ncnc2c1",
    "target entity": "Receptor tyrosine-protein kinase erbB-2 (Homo sapiens)",
    "pIC50": 8.10
  },
  {
    "molecule": "C=CC(=O)N1CCN(C(=O)Oc2cc3c(Nc4cccc(Cl)c4F)ncnc3cc2OC)[C@H](C)C1",
    "target entity": "Receptor tyrosine-protein kinase erbB-2 (Homo sapiens)",
    "pIC50": 6.82
  },
  {
    "molecule": "O=C(Nc1ccc2ncnc(Nc3ccc(OCc4cccc(F)c4)c(Cl)c3)c2c1)c1ccc(CNCCO)cc1",
    "target entity": "Receptor tyrosine-protein kinase erbB-2 (Homo sapiens)",
    "pIC50": 7.92
  },
  {
    "molecule": "COc1ccc2c(Nc3ccc(Oc4cccc5ccc(C)nc45)c(C)c3)ncnc2c1",
    "target entity": "Receptor tyrosine-protein kinase erbB-2 (Homo sapiens)",
    "pIC50": 6.62
  },
  {
    "molecule": "COc1cc2ncnc(Nc3ccc(Oc4cccc5ccc(C)nc45)c(C)c3)c2cc1OC",
    "target entity": "Receptor tyrosine-protein kinase erbB-2 (Homo sapiens)",
    "pIC50": 7.85
  }
]

I. C=CC(=O)NC1CCN(c2ncc3ncnc(Nc4ccc(Oc5ccc6c(c5)ncn6C)c(C)c4)c3n2)CC1
II. CCOc1cc2ncc(C#N)c(Nc3ccc(OCc4ccccn4)c(Cl)c3)c2cc1NC(=O)/C=C/[C@H]1CCCN1C
III. C=CC(=O)N1CCC(Oc2cc3c(Nc4ccc(Cl)c(Cl)c4F)ncnc3cc2OC)CC1
IV. C=CC(=O)N1C[C@@H]2C[C@H]1CN2C(=O)Oc1cc2c(Nc3ccc(Cl)c(Cl)c3F)ncnc2cc1OC
Q) Reorder the items by pIC50, least to greatest. API: response body holds the labels in the requested order.
A) II, I, IV, III

1. COCCOc1ccc2ncnc(Nc3ccc(Oc4cccc5ccc(C)nc45)c(C)c3)c2c1
2. C=CC(=O)N1CCC[C@@H](n2nc(-c3ccc(OCc4cccc(C)n4)cc3)c3c(N)ncnc32)C1
Q) # return whichever of 1 and 2 has the smaller pIC50 # respond with the chosen item's label
A) 1
(1: 7.38, 2: 7.79)

Values from ChEMBL document CHEMBL6083185
